- System: 699152-130-R-J1-PDC complex spheroid viability
- Test description: Anticancer human tumor 699152-130-R-J1-PDC patient-derived pancreatic carcinoma cell line growth inhibition [POLQ]
- Measurement setup: curve of first compound; second compound 0.0316 µM
Would you mind telling me the reported IC50 of each entry?

Some compounds with known IC50 results, for comparison:
COc1cccc2c1C(=O)c1c(O)c3c(c(O)c1C2=O)CC(O)(C(=O)CO)CC3OC1CC(N)C(O)C(C)O1 (centres undefined) + Cc1cccc(N(C)C(=O)C2C(O)CCN2c2nc(C)cc(C(F)(F)F)c2C#N)c1: 222 nM
C#Cc1c(F)ccc2cc(O)cc(-c3ncc4c(N5CC6CCC(C5)N6)nc(OCC56CCCN5CC(F)C6)nc4c3F)c12 (centres undefined) + Nc1ccc(C#CCN(C(=O)Cc2ncc(C(F)(F)F)cc2C(F)(F)F)c2ccc(F)cc2)nn1: < 31.6 nM
O=C(c1cc(Cc2n[nH]c(=O)c3ccccc23)ccc1F)N1CCN(C(=O)C2CC2)CC1 + Cc1cccc(N(C)C(=O)C2C(O)CCN2c2nc(C)cc(C(F)(F)F)c2C#N)c1: > 10000 nM

Please find the next compound below.
Problem: Form field: reported IC50 of C=CCn1c(=O)c2cnc(Nc3ccc(N4CCN(C)CC4)cc3)nc2n1-c1cccc(C(C)(C)O)n1 + Nc1ccc(C#CCN(C(=O)Cc2ncc(C(F)(F)F)cc2C(F)(F)F)c2ccc(F)cc2)nn1
Result: > 1000 nM

---

- Test system: 699152-130-R-J1-PDC complex spheroid viability
- Test description: Anticancer human tumor 699152-130-R-J1-PDC cell line growth inhibition [POLQ];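 further: spheroids exposed to agents for 7 days before viability reading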;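 on viability, T/C: percent of DMSO vehicle control viability so 100% = vehicle and 0% = no viable signal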
- Measurement setup: second compound 0.316 µM; first compound 1 µM; stronger effect = lower value
Experimental endpoint: viability, T/C (%)
One number for each entry, in %.

COc1cccc2c1C(=O)c1c(O)c3c(c(O)c1C2=O)CC(O)(C(=O)CO)CC3OC1CC(N)C(O)C(C)O1 (stereo not drawn) + Nc1ccc(C#CCN(C(=O)Cc2ncc(C(F)(F)F)cc2C(F)(F)F)c2ccc(F)cc2)nn1: 35.7
CNCc1ccc(-c2[nH]c3cc(F)cc4c3c2CCNC4=O)cc1 + COC1C(OC(N)=O)C(O)C(Oc2ccc3c(O)c(NC(=O)c4ccc(O)c(CC=C(C)C)c4)c(=O)oc3c2C)OC1(C)C: 97.8

Problem: Any idea what its viability, T/C is? The compound is CNCc1ccc(-c2[nH]c3cc(F)cc4c3c2CCNC4=O)cc1 + Nc1ccc(C#CCN(C(=O)Cc2ncc(C(F)(F)F)cc2C(F)(F)F)c2ccc(F)cc2)nn1
Result: 102

---

- Tested on: 699152-130-R-J1-PDC complex spheroid viability
- Test description: Anticancer human tumor 699152-130-R-J1-PDC cell line growth inhibition [POLQ];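 further: spheroids exposed to agents for 7 days before viability reading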;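 on viability, T/C: percent of DMSO vehicle control viability so 100% = vehicle and 0% = no viable signal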
- Measurement setup: second compound 3.16 µM; first compound 0.316 µM; stronger effect = lower value
Experimental endpoint: viability, T/C

CC1COCCN1c1cc(-c2ccnn2C)c2ccnc(-c3ccn[nH]3)c2n1 (centres undefined) + Nc1ccc(C#CCN(C(=O)Cc2ncc(C(F)(F)F)cc2C(F)(F)F)c2ccc(F)cc2)nn1: 75.6%
CC1COCCN1c1cc(C2(S(C)(=N)=O)CC2)nc(-c2ccnc3[nH]ccc23)n1 (centres undefined) + Cc1cccc(N(C)C(=O)C2C(O)CCN2c2nc(C)cc(C(F)(F)F)c2C#N)c1: 99%
CCc1c2c(nc3ccc(O)cc13)-c1cc3c(c(=O)n1C2)COC(=O)[C@]3(O)CC + Nc1ccc(C#CCN(C(=O)Cc2ncc(C(F)(F)F)cc2C(F)(F)F)c2ccc(F)cc2)nn1: 29.6%

Problem: GET /values?readout=viability, T/C&system=699152-130-R-J1-PDC complex spheroid viability&item= CCc1cc2c(N3CCc4c(cc(Cn5ccnc5)cc4-c4cn(C)nc4C(F)(F)F)C3=O)cc(C)nc2c(OC)n1 + Cc1cccc(N(C)C(=O)C2C(O)CCN2c2nc(C)cc(C(F)(F)F)c2C#N)c1
Result: 92.2%
